In this section, each of the compounds is paired with its reported RP-LC retention time.
experiment: gradient 5% acetonitrile 3 min, to 50% in 2 min, to 85% in 15 min, held 3 min, 100 µL/min; details: column: Zorbax Extend-C18 2.1 x 50 mm; eluents: water / acetonitrile, 0.1% formic acid
readoutKind: RP-LC retention time (s)

{"compound": "CCOc1ccccc1NC(=O)CN1C(=O)CCc2cc(Br)ccc21", "assayResult": 1000}
{"compound": "Cc1nc(-c2nc(-c3cccs3)cs2)cn1CC(=O)NCc1ccccc1", "assayResult": 760}
{"compound": "Cc1ccc(NC(=O)N(C)CCc2noc(COc3cccc(C)c3)n2)cc1", "assayResult": 972}
{"compound": "CC(C)CN1CCn2cc(S(=O)(=O)Nc3ccc(Cl)cc3)cc2C1=O", "assayResult": 848}
{"compound": "O=C(NCC1CCCO1)C1CCN(c2cnn(Cc3ccccc3)c(=O)c2)CC1 (stereo not given)", "assayResult": 667}
{"compound": "CCOc1cc(C(=O)Nc2c(-c3ccc(F)cc3)nc3cc(C)ccn23)cc(OCC)c1OCC", "assayResult": 819}
{"compound": "CCOC(=O)c1noc2ncnc(NCCc3ccc(C)cc3)c12", "assayResult": 1060}
{"compound": "CC(Cc1ccco1)NC(=O)C1CCN(S(=O)(=O)c2ccc3c(c2)sc(=O)n3C)CC1 (stereo not given)", "assayResult": 807}
{"compound": "Cc1c(C)n(C)c2ccc(C(=O)NCC(C)C)cc12", "assayResult": 909}
{"compound": "CC(C)c1ccc(C(=O)NC(Cc2ccccc2)c2nnc(N3CCSCC3)o2)cc1 (stereo not given)", "assayResult": 996}

====

assay: gradient 5% acetonitrile 3 min, to 50% in 2 min, to 85% in 15 min, held 3 min, 100 µL/min; details: column: Zorbax Extend-C18 2.1 x 50 mm; eluents: water / acetonitrile, 0.1% formic acid
Think of 700 s as a floor: if RP-LC retention time stands on it or above, it is condition met; beneath it, condition not met.

{"compound": "O=C(NCc1ccccc1C(F)(F)F)C1CCN(c2cncnc2N2CCOCC2)CC1", "labelClass": "condition not met"}
{"compound": "Cc1ccc(CN2C[C@@H]3C(=O)N(C)C(=O)[C@@H]3C2)cc1C", "labelClass": "condition not met"}
{"compound": "Cc1csc(-c2cc(S(=O)(=O)NCCN3CCOCC3)cn2CC(=O)N2CCCCC2)n1", "labelClass": "condition not met"}
{"compound": "Cc1ccc(CNS(=O)(=O)c2cc(-c3nc(C(C)(C)C)cs3)cs2)cc1C", "labelClass": "condition met"}
{"compound": "O=S(=O)(c1ccc2ccccc2c1)N1CCC(c2nc(-c3ccccn3)no2)CC1", "labelClass": "condition met"}
{"compound": "O=C(C1CCN(c2nc3ccc(-c4cccnc4)nc3s2)CC1)N1CCCC1", "labelClass": "condition not met"}
{"compound": "CN1C(=O)c2cccnc2Sc2cc(NC(=O)C3CCCC3)ccc21", "labelClass": "condition met"}
{"compound": "CCC(=O)N(CC(=O)N1CCc2sccc2C1COc1ccccc1OC)C(C)C (centres undefined)", "labelClass": "condition met"}
{"compound": "COCc1noc([C@@H]2CC(F)(F)CN2C(=O)c2occc2C)n1", "labelClass": "condition met"}
{"compound": "Cc1cc(C)n(Cc2nc(-c3ccc(NC(=O)C4CCCCC4)cc3)oc2C)n1", "labelClass": "condition met"}
{"compound": "CC(C)c1nc(-n2cccc2)sc1C(=O)NC1CC1", "labelClass": "condition met"}
{"compound": "O=C(c1c[nH]c2ccccc12)N1CCC(c2nc(-c3ccccc3)no2)C1 (centres undefined)", "labelClass": "condition met"}
{"compound": "Cc1oc(C(C)C)nc1C(=O)NC(C)c1ccccn1 (centres undefined)", "labelClass": "condition not met"}
{"compound": "CCc1nn2c(CNC(=O)c3ccc(OC)c(F)c3)c(-c3ccccc3)nc2s1", "labelClass": "condition met"}
{"compound": "CC(C)c1ccc(NC(=O)CC2COc3ccccc3NC2=O)cc1 (centres undefined)", "labelClass": "condition met"}
{"compound": "COc1ccc(C(=O)Nc2nccnc2C(=O)NCC2CCCCC2)cc1", "labelClass": "condition met"}
{"compound": "COCCNC(=O)N1CCC(c2nnc(C(F)(F)F)o2)CC1", "labelClass": "condition not met"}
{"compound": "CCOC(=O)c1c(S(=O)(=O)N2CCC(C(=O)Nc3ccccc3C)CC2)c(C)n(CC)c1C", "labelClass": "condition met"}
{"compound": "CC[C@H]1[C@@H]2C[C@H]3[C@@H]4N(C)c5ccccc5[C@]45C[C@@H]([C@H]2[C@H]5O)N3[C@@H]1O", "labelClass": "condition not met"}

====

assay: gradient 5% acetonitrile 3 min, to 50% in 2 min, to 85% in 15 min, held 3 min, 100 µL/min; conditions: column: Zorbax Extend-C18 2.1 x 50 mm; eluents: water / acetonitrile, 0.1% formic acid
In this section, each of the molecules is paired with its reported RP-LC retention time.
readoutKind: RP-LC retention time (s)

{"querySmiles": "CCc1sc(N)nc1-c1ccc(OC)cc1", "u": "s", "assayResult": 668}
{"querySmiles": "O=C(c1nc(-c2ccnc(N3CCCC3)c2)no1)N1CCC2(CC1)OCCO2", "u": "s", "assayResult": 617}
{"querySmiles": "O=C(NCc1ccccc1C(F)(F)F)c1cn2c(n1)CCCC2", "u": "s", "assayResult": 640}
{"querySmiles": "Cn1c(=O)n(CC(=O)O)c(=O)c2c1nc1n2CCN1c1ccc(Cl)cc1", "u": "s", "assayResult": 748}

====

assay: gradient 5% acetonitrile 3 min, to 50% in 2 min, to 85% in 15 min, held 3 min, 100 µL/min; settings: column: Zorbax Extend-C18 2.1 x 50 mm; eluents: water / acetonitrile, 0.1% formic acid
readoutKind: RP-LC retention time (s)

{"compound": "CCOC(=O)c1noc2nc(C)nc(NCc3ccc(CC)cc3)c12", "assayResult": 722}
{"compound": "COc1ccc(C(=O)N2CCC3(CC2)N=C(c2ccc(Cl)cc2)NO3)cc1OC", "assayResult": 784}
{"compound": "CCOc1ccc(-c2nc(CSCC(=O)NCc3cccs3)c(C)o2)cc1", "assayResult": 1030}
{"compound": "Cc1ccc(C2Cn3nnc(-c4nc(C5CCCCC5)no4)c3CO2)c(C)c1 (stereo not drawn)", "assayResult": 1390}
{"compound": "CN(C)c1ccc(CNC(=O)CCC(=O)N2CCCn3nc(-c4cccn4C)cc32)cc1", "assayResult": 599}
{"compound": "O=C(NCCCN1CCOCC1)c1csc(N2CCN(c3ccccc3)CC2)n1", "assayResult": 654}
{"compound": "Cc1nc(CCNS(=O)(=O)c2ccc(Cl)cc2)no1", "assayResult": 769}
{"compound": "COc1ccc(C(=O)N2CCC3(CC2)N=C(c2cccc(Br)c2)NO3)cc1F", "assayResult": 901}
{"compound": "CCOC(=O)C1=C(O)C(=O)N(Cc2ccccc2)C1", "assayResult": 834}
{"compound": "CCOc1ccccc1-c1noc(Cn2cnc3c(cnn3-c3ccc(CC)cc3)c2=O)n1", "assayResult": 1170}
{"compound": "O=C(O)CCCNS(=O)(=O)c1ccc2ccccc2c1", "assayResult": 717}
{"compound": "O=C(CN1CCN(C(=O)Nc2ccc(F)cc2)CC1=O)NC1CCCCC1", "assayResult": 701}
{"compound": "Cc1cc(NC(=O)NC2CCN(c3nc4ccccc4n(C)c3=O)CC2)ccc1Br", "assayResult": 1050}
{"compound": "CCN(CC)C(=O)Oc1ccc(C(=O)Nc2cccc3ccccc23)cc1", "assayResult": 896}
{"compound": "O=C(Cc1ccccc1)N1CCCCC1c1nc(-c2cnccn2)no1 (stereo not drawn)", "assayResult": 812}
{"compound": "CCN(CC)c1ccc(NC(=O)C2CCCN(S(=O)(=O)c3cn(C(C)C)cn3)C2)c(C)c1 (stereo not drawn)", "assayResult": 622}
{"compound": "O=C(NCc1nnc2n1CCCC2)c1ccc2c(c1)OCO2", "assayResult": 1260}
{"compound": "O=C(c1ccco1)N1CCN(C(=O)c2nnn3c2COC(c2ccc(Cl)cc2)C3)CC1 (stereo not drawn)", "assayResult": 838}
{"compound": "Cc1nn2c(CNS(=O)(=O)c3ccccc3F)c(-c3ccccc3)nc2s1", "assayResult": 834}
{"compound": "COc1cccc(NC(=O)CN2C(=O)NC3(CCCCC3)C2=O)c1", "assayResult": 724}
{"compound": "Cc1cccc(NC(=O)c2ncn3c2C(=O)N(C2CC2)C(C)(C(=O)NC2CCCC2)C3)c1C (stereo not drawn)", "assayResult": 842}
{"compound": "O=C(c1ccccn1)N1CC(n2cc(COc3ccncc3)nn2)C1", "assayResult": 566}
{"compound": "Cc1ccccc1-c1noc(N2CCC(C(=O)N3CCN(C4CCCCC4)CC3)CC2)n1", "assayResult": 705}
